Item-by-item account of GI50
Test system: SF-268
Assay: NCI tumour cell line growth inhibition, 48 h
The source made the active and inactive calls. Cut-off read from the data, not from the text of the source: active = GI50 up to about 1.1 µM and inactive = higher.

# count of solved cases: 5
CC1CC#CCOC(=O)CCCC1=O (stereo unspecified); > 100 µM (inactive)
CC(=O)c1ccc(N2C(=O)C3c4[nH]c5ccccc5c4C4CCC(C(C)(C)C)CC4C3C2=O)cc1 (stereo unspecified); 17.3 µM (inactive)
CC1(C)CCCCCCC2CC2CCCCCC(C)(C)C1=O (stereo unspecified); > 100 µM (inactive)
O=c1ccn(C2OC(CO)C(O)C2[Se]c2ccccc2)c(=O)[nH]1 (stereo unspecified); > 100 µM (inactive)
CN(Cc1cnc2nc(N)nc(N)c2n1)c1ccc(C(=O)NCS(=O)(=O)O)cc1; 33.3 µM (inactive)

# context switch: different compound, same GI50
What value of GI50 has been reported for the following compound? Cc1cc(-c2nc3cc(F)ccc3s2)ccc1NC(=O)[C@@H](N)CCCCN
6.75 µM (inactive)

====

Tested on: CAKI-1
Experiment: NCI tumour cell line growth inhibition, 48 h
Calls of active or inactive are those of the source. Cut-off read from the data, not from the text of the source: active = GI50 up to about 1.1 µM and inactive = higher.
Returns: one label drawn from Yes = active, No = inactive

Completed entries (count: 3):
O=C1c2ccccc2C(=O)C2C1C1C(=O)c3ccccc3C(=O)C21 (centres undefined); No
COc1ccccc1/C=C\c1cnnc2ccccc12; No
COC(=O)C1CCC(N2C(=O)CCC2C(=O)OC)=N1 (centres undefined); No

Which outcome was assigned to N#Cc1c(=O)c2ccccc2n2c1[nH]c1ccccc12 in this test?
No

Which outcome was assigned to CC1(C)N[PH]2(Nc3ccccc3O2)OC1=O in this test?
No

Which outcome was assigned to CC(C)=CC(=O)C[C@H]1C(=O)O[C@@H]2C[C@H]3C(C)=CC(=O)[C@@H](O)[C@]3(C)[C@H]3[C@@]4(O)OC[C@]32[C@@H]1[C@@H](C)[C@H]4O in this test?
Yes

Which outcome was assigned to O=C(COc1ccc(Br)cc1Br)N1N=C(c2ccc([N+](=O)[O-])o2)CC1(O)c1ccccc1 (centres undefined) in this test?
No

Which outcome was assigned to COC(=O)C1=C(OC(=O)/C(=C/c2ccc(Cl)cc2)c2ccccc2)C(C(=O)OC)[C@@]2(O)[C@@H](C(=O)OC)[C@H](C)C[C@@H]1[C@@H]2C(=O)OC (some centres undefined) in this test?
No

Which outcome was assigned to CN(C)c1n/c(=N/Cc2ccccn2)ss1 in this test?
No

====

Item-by-item account of GI50
Tested on: SK-MEL-2
Test: NCI tumour cell line growth inhibition, 48 h
The source made the active and inactive calls. Cut-off read from the data, not from the text of the source: active = GI50 up to about 1.1 µM and inactive = higher. Where a SMILES comes first, the peptide text is derived from it. [ ]: non-standard residue; d: D form. The star is where a group is joined. NMeF = CN[C@@H](Cc1ccccc1)C(=O)O; NMeV = CN[C@H](C(=O)O)C(C)C; Boc = CC(C)(C)OC(=O)*; OBn = c1ccc(CO*)cc1

# count of solved cases: 6
O=C(/C(=C\I)c1ccccc1)c1ccccc1; 7.8 µM (inactive)
COc1cc2nc(-c3cccs3)nc(N3CCN(c4ccccc4C(F)(F)F)CC3)c2cc1OC; > 100 µM (inactive)
COc1ccc(CNc2cnc3ccc(N)cc3n2)cc1OC; > 100 µM (inactive)
CCC(C#N)(c1ccccc1)N(CCc1ccccc1)C(=O)c1ccccc1 (centres undefined); 67 µM (inactive)
CC(C)[C@@H](C(=O)N1CCC[C@H]1C(=O)OCc1ccccc1)N(C)C(=O)[C@H](C(C)C)N(C)C(=O)[C@H](Cc1ccccc1)N(C)C(=O)[C@H](NC(=O)OC(C)(C)C)C(C)C (Boc-[dV][NMeF][NMeV][NMeV]P-OBn); > 50 µM (inactive)
COc1ccccc1C(=O)c1ccc2ccccc2c1; 14.1 µM (inactive)

Field: GI50 (SK-MEL-2). Entry: CCCC(=O)OCC1OC(n2cc(F)c(=O)[nH]c2=O)C(F)C1O (centres undefined)
> 100 µM (inactive)

Field: GI50 (SK-MEL-2). Entry: O=C(NN1C(=O)C(Cl)C1c1ccc(Cl)cc1)c1c(Cl)c(Cl)c(Cl)c(Cl)c1-c1nc2ccccc2[nH]1 (centres undefined)
21.8 µM (inactive)

Field: GI50 (SK-MEL-2). Entry: COP(=O)(OC)C(=O)N1N(c2ccc([N+](=O)[O-])cc2)C(=O)C(C)NC1(NNc1ccc([N+](=O)[O-])cc1)P(=O)(OC)OC (centres undefined)
> 100 µM (inactive)

Field: GI50 (SK-MEL-2). Entry: CCOc1ccccc1N1CSc2nnc(-c3ccccc3)n2C1
> 100 µM (inactive)
